Kindly supply the reported pIC50 values for the records listed here.
System: Bel-7402
assay_comment: Antiproliferative activity against human Bel7402 cells after 72 hrs by CCK-8 assay
Format: functional, cell-based
assay_context: Bel-7402, 72 h
// pIC50: -log10(molar conc.)

Reported pIC50 (Bel-7402) for entry COc1ccc2c(c1)c(CC(=O)O[C@H]1c3cc4c(cc3[C@@H](c3cc(OC)c(OC)c(OC)c3)[C@H]3C(=O)OC[C@@H]31)OCO4)c(C)n2C(=O)c1ccc(Cl)cc1 is 5.23

Short answer on Bel-7402 for COc1cc([C@@H]2c3cc4c(cc3[C@H](O)[C@H]3COC(=O)[C@H]23)OCO4)cc(OC)c1OC , pIC50: 7.28

pIC50 of COc1cc([C@@H]2c3cc4c(cc3[C@H](OC(=O)c3ccccc3OC(C)=O)[C@H]3COC(=O)[C@H]23)OCO4)cc(OC)c1OC , assay on Bel-7402, is 6.70

Bel-7402 data for COc1cc([C@@H]2c3cc4c(cc3[C@H](OC(=O)C(C)c3ccc(CC(C)C)cc3)[C@H]3COC(=O)[C@H]23)OCO4)cc(OC)c1OC (stereo partly drawn) ; its pIC50: 4.72

Summary line: O=c1[nH]cc(F)c(=O)[nH]1 , Bel-7402, reported pIC50 = 5.23
